B1: tRNA (parent)
chain: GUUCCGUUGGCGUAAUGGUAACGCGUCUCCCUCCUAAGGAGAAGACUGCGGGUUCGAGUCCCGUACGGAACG

Variants of: B1
Assay: yeast fitness relative to wild type (ratio to wild type); higher = fitter; tRNA-Arg(CCU), competitive growth, 37 C, YPD
Fewer inactive variants are shown than the library holds.
MEASUREMENT_LABEL: yeast fitness
Reply briefly: the number, and no unit.

G17C C22A C31G C55G A70U yielded yeast fitness of 0.527

yeast fitness reported for this variant A42U G48C C61A : 0.643

Data point: C33G A45U G56C ; yeast fitness = 0.637

yeast fitness reported for this variant U32C G63C : 0.759

For G18A A45C C49U the variant record lists yeast fitness as 0.667

Quick note, yeast fitness for C5U A37G G56C landed at 0.533

// field: yeast fitness; key: U13A C62G A69G ; value = 0.571

Lab note: measured yeast fitness of A21G A57G C66G was 0.599

yeast fitness reading for U3A G63C : 0.743

variant C5G G48A C62G A69U , yeast fitness observed: 0.768

Item: C46A U53A | yeast fitness: 0.738

// sample U7A A15G G18A , its yeast fitness was 0.669

// recorded yeast fitness for G10C G38A C61A : 0.618

Form: variant = C11A C55U ; yeast fitness = 0.514

The variant identified as G23A U59C registered its yeast fitness at 0.799

Record U32C A40C . Reported yeast fitness: 0.986

The value of yeast fitness measured for the variant A15G A70G turned out to be 0.999

# variant U16A U19A A69C ; its yeast fitness = 0.747

Note to self: yeast fitness recorded for C31A A37G C55U A57G was 0.531

Noted for U2G C30G C62G : its yeast fitness reads 0.591

Documented yeast fitness of U8G A45G : 0.632

Just so you know, measured yeast fitness for G6C G10A A36U G51C A69C came out at 0.624

U7G C61A yielded yeast fitness of 0.708

What the record says about U19G A69C : yeast fitness is 0.856

Note to self: yeast fitness recorded for C24U U59A was 0.875

Form: variant = A20C A42U A65U ; yeast fitness = 0.553

Sample U16C C29G ; yeast fitness observed: 0.619

The variant identified as U47C A57U registered its yeast fitness at 0.623

So, A43U C46G U54A ? Its yeast fitness was 0.538

yeast fitness for C22G C46A C62U is 1.04

yeast fitness reading for A57C C60G : 0.503

The measured yeast fitness associated with G9C C11G G12C U28C C61U reads 0.747

Measured yeast fitness of G10C G67A : 0.673

The reported yeast fitness of the variant G17C C22G C30U G41C was 0.612

// sample A20C C30A C55A , its yeast fitness was 0.571

# yeast fitness of C22G C31A A36G C49G G63C A69U = 0.543

The measured yeast fitness associated with U2C G44C reads 0.846

Kindly note the recorded yeast fitness for C5G C31U U32C , which is 0.659

// field: yeast fitness; key: G44A G56C C62U ; value = 0.695

Record summary for A15G A20U C24G A42G U54C : reported yeast fitness = 0.575
